# System: CD2F1 mice, L1210 leukemia ip, survival T/C
# EXPERIMENTAL PROTOCOL: NCI In Vivo Anticancer Drug Screen. Data for tumor model L1210 Leukemia (intraperitoneal) in CD2F1 (CDF1) mice
# SETTINGS: endpoint: mean survival time; dose: 3.12 mg/kg/injection; schedule: Q01DX009 (ip); vehicle: saline
Toxic doses and inconclusive results are not listed. How the source made its calls: active means survival T/C of 150% or more; inactive means T/C below 125% in these data.
Outcome codes: True (active), False (inactive)

INSERT INTO measurements (compound, class_name) VALUES
  ('C=C(NC(=O)C(=C)NC(=O)c1csc(C2=NC3c4csc(n4)C4NC(=O)c5csc(n5)C(C(C)(O)C(C)O)NC(=O)C5CSC(=N5)/C(=C/C)NC(=O)C(C(C)O)NC(=O)c5csc(n5)C3(CC2)NC(=O)C(C)NC(=O)C(=C)NC(=O)C(=C)NC(=O)C(C(C)C)NC2C=Cc3c(C(C)O)cc(nc3C2O)C(=O)OC4C)n1)C(N)=O (stereo not given)', 'False'),
  ('c1ccc([B-]2([C+]3CCCCC3)N3CCCCC3C3CCCCN32)cc1 (stereo not given)', 'False'),
  ('N[C@H](C(=O)O)[C@@H]1CC(Cl)=NO1', 'True'),
  ('CNc1nc2c(N)ncnc2n1C1OC(CO)C(O)C1O (stereo not given)', 'False'),
  ('CC[N](CC)[Ge]([CH2]C)[CH2]C.CC[N](CC)[Ge]([CH2]C)[CH2]C', 'False');

* * *

# Tested on: CD2F1 mice, L1210 leukemia ip, survival T/C
# EXPERIMENTAL PROTOCOL: NCI In Vivo Anticancer Drug Screen. Data for tumor model L1210 Leukemia (intraperitoneal) in CD2F1 (CDF1) mice
# SETTINGS: endpoint: mean survival time; dose: 400.0 mg/kg/injection; schedule: Q04DX003 (ip); vehicle: saline with Tween-80; higher = longer survival
Inconclusive results and toxic doses are left out.
MEASURED ATTRIBUTE: T/C

INSERT INTO measurements (compound, measured_attribute, value_measured) VALUES
  ('CCOC(=O)c1ccc(OC(=O)Nc2cc(C)ccc2C)cc1', 'T/C', '94 % of control'),
  ('CCC(C=O)Cc1ccccc1 (stereo not given)', 'T/C', '88 % of control'),
  ('Fc1c(F)c(N(c2ccccc2)c2ccccc2)c(F)c(F)c1N(c1ccccc1)c1ccccc1', 'T/C', '93 % of control'),
  ('O=C(CN1C(=O)CCC1=O)NCCc1cccc(OCc2ccccc2)c1', 'T/C', '97 % of control'),
  ('CCOC(=O)C1OC12c1cccc3cccc(c13)C21OC1C(=O)OCC (stereo not given)', 'T/C', '91 % of control'),
  ('O=C1C(O)CC(c2ccccc2)N1c1ccccc1 (stereo not given)', 'T/C', '100 % of control'),
  ('COC(=O)C1(C)CCCC2(C)C3CC4OC4(C(C)C)CC3(O)CCC12 (stereo not given)', 'T/C', '98 % of control'),
  ('COc1cc(CC(C)N)ccc1O (stereo not given)', 'T/C', '89 % of control'),
  ('O=C1Nc2ccc([N+](=O)[O-])c3c(C(=O)O)ccc1c23', 'T/C', '101 % of control'),
  ('O=C(O)/C=C/C(=O)Nc1ccc(I)cc1', 'T/C', '97 % of control'),
  ('CCOC(=O)C(Br)(C(=O)OCC)C(c1ccccc1)c1ccccc1', 'T/C', '93 % of control'),
  ('COc1cc(NC(=O)CC(C)=O)cc(OC)c1OC', 'T/C', '96 % of control'),
  ('Cc1ccc(S(=O)(=O)Nc2cccc3c(NS(=O)(=O)c4ccc(C)cc4)cccc23)cc1', 'T/C', '96 % of control'),
  ('O=C(CC(=O)Nc1ccccc1)Nc1ccccc1', 'T/C', '99 % of control'),
  ('CC(C)NS(=O)(=O)c1ccccc1', 'T/C', '99 % of control'),
  ('Cc1cc(=O)[nH]c2c(C)cc(Cl)cc12', 'T/C', '97 % of control'),
  ('Cc1c(N=[N+]=[N-])c(NS(=O)(=O)c2ccccc2)c(C)c(N=[N+]=[N-])c1NS(=O)(=O)c1ccccc1', 'T/C', '93 % of control'),
  ('COC(=O)C1C2OC3C(OC(=O)C31)C2Br (stereo not given)', 'T/C', '91 % of control'),
  ('OC(Cc1nc2ccccc2s1)(C(F)(F)F)C(F)(F)F', 'T/C', '97 % of control'),
  ('O=C(O)CC/C(=N\O)c1cccc([N+](=O)[O-])c1', 'T/C', '98 % of control'),
  ('C=CCc1cc(OC)ccc1OC(C)=O', 'T/C', '105 % of control'),
  ('Cc1nc(-c2ccccc2)[nH]c(=O)c1CCO', 'T/C', '111 % of control'),
  ('Nc1nnnn1-c1ccc(O)cc1', 'T/C', '104 % of control'),
  ('Fc1ccc2nc(C(F)(F)F)cc(Br)c2c1', 'T/C', '101 % of control'),
  ('CCCCCCOc1ccc(C=Nc2ccc(CC)cc2)cc1', 'T/C', '88 % of control');

* * *

Entries and their T/C
# System: CD2F1 mice, L1210 leukemia ip, survival T/C
# EXPERIMENTAL PROTOCOL: NCI In Vivo Anticancer Drug Screen. Data for tumor model L1210 Leukemia (intraperitoneal) in CD2F1 (CDF1) mice
# SETTINGS: endpoint: mean survival time; dose: 200.0 mg/kg/injection; schedule: Q04DX003 (ip); vehicle: saline with Tween-80; higher = longer survival
# Experimental: The antitumor activity of compounds was measured in mice bearing transplantable tumors. Survival or tumor size were measured and the results are expressed as the measurement made in the treated group (T) divided by the measurement made in the vehicle treated control group (C). The tumor model used in this assay is L1210 Leukemia (intraperitoneal) in CD2F1 (CDF1) mice
Inconclusive results and toxic doses are left out.
MEASURED ATTRIBUTE: T/C

INSERT INTO results (compound, measured_attribute, value_measured) VALUES
  ('O=C(O)CCN1C(=O)c2ccccc2C1=O', 'T/C', '97 % of control'),
  ('CCCCCCCCCCCCNC(=O)c1cc[n+](Cc2ccc(Cl)c(Cl)c2)cc1', 'T/C', '96 % of control'),
  ('Nc1ccc2sccc2c1', 'T/C', '102 % of control'),
  ('O=C(NN=C1CCCCC1)c1ccccc1', 'T/C', '100 % of control'),
  ('CCc1ccccc1OS(=O)(=O)c1cccc([N+](=O)[O-])c1', 'T/C', '100 % of control'),
  ('CC(CP(=O)(c1ccccc1)c1ccccc1)C(=O)O (stereo not drawn)', 'T/C', '95 % of control'),
  ('CCOC(=O)c1cc(=O)n(C)c2ccc(OCC)cc12', 'T/C', '91 % of control'),
  ('O=C(O)c1cc2ccccc2o1', 'T/C', '94 % of control'),
  ('COC1OC(C2N(c3ccccc3)CCN2c2ccccc2)=CC(OC(C)=O)C1OC(C)=O (stereo not drawn)', 'T/C', '107 % of control'),
  ('CCCCS(=O)C(Cl)(CCC)C(C)(C)O (stereo not drawn)', 'T/C', '93 % of control'),
  ('CC1(C)C2CCC1(C(=O)O)C(=O)C2 (stereo not drawn)', 'T/C', '92 % of control'),
  ('ClCc1c2c(cc3c1CCCC3)CCCC2', 'T/C', '93 % of control'),
  ('O=[N+]([O-])c1ccc2c([N+](=O)[O-])ccc3c2c1CC3', 'T/C', '109 % of control');

* * *

Entries and their T/C
# Tested on: CD2F1 mice, L1210 leukemia ip, survival T/C
# EXPERIMENTAL PROTOCOL: NCI In Vivo Anticancer Drug Screen. Data for tumor model L1210 Leukemia (intraperitoneal) in CD2F1 (CDF1) mice
# SETTINGS: endpoint: mean survival time; dose: 200.0 mg/kg/injection; schedule: Q04DX003 (ip); vehicle: saline with Tween-80; higher = longer survival
Inconclusive results and toxic doses are left out.
MEASURED ATTRIBUTE: T/C

INSERT INTO assay_data (compound, test_system, measured_attribute, value_measured) VALUES
  ('Nc1ccc2c(c1)-c1ccccc1C2O (stereo not drawn)', 'CD2F1 mice, L1210 leukemia ip, survival T/C', 'T/C', '101 % of control'),
  ('O=C(CNCc1ccccc1)c1ccccc1', 'CD2F1 mice, L1210 leukemia ip, survival T/C', 'T/C', '96 % of control'),
  ('Cc1ccc(N)c(Br)c1', 'CD2F1 mice, L1210 leukemia ip, survival T/C', 'T/C', '98 % of control'),
  ('O=C(CCl)Nc1cccc2c1CCCC2', 'CD2F1 mice, L1210 leukemia ip, survival T/C', 'T/C', '96 % of control'),
  ('O=C(NNc1ccccc1OCc1ccccc1)C(F)(F)F', 'CD2F1 mice, L1210 leukemia ip, survival T/C', 'T/C', '103 % of control'),
  ('Cc1ccccc1/C1=C/CCCCCC1', 'CD2F1 mice, L1210 leukemia ip, survival T/C', 'T/C', '104 % of control'),
  ('O=C(c1ccccc1)C(C(c1ccc([N+](=O)[O-])cc1)N1CCOCC1)N1CCOCC1 (stereo not drawn)', 'CD2F1 mice, L1210 leukemia ip, survival T/C', 'T/C', '101 % of control'),
  ('CC(C)NS(=O)(=O)c1ccccc1', 'CD2F1 mice, L1210 leukemia ip, survival T/C', 'T/C', '96 % of control'),
  ('Cc1ccc(C(O)S(=O)(=O)O)cc1 (stereo not drawn)', 'CD2F1 mice, L1210 leukemia ip, survival T/C', 'T/C', '103 % of control'),
  ('COc1ccc2occc2c1', 'CD2F1 mice, L1210 leukemia ip, survival T/C', 'T/C', '94 % of control'),
  ('CCCCN(CCCC)CC(C)(O)c1cc(-c2ccc(Cl)cc2)nc2c(C)cc(C)cc12 (stereo not drawn)', 'CD2F1 mice, L1210 leukemia ip, survival T/C', 'T/C', '89 % of control'),
  ('COC(=O)C1C2CCC(C2)C1C(=O)OC (stereo not drawn)', 'CD2F1 mice, L1210 leukemia ip, survival T/C', 'T/C', '101 % of control'),
  ('O=c1c2ccccc2c(-c2ccccc2)nn1Cc1ccccc1', 'CD2F1 mice, L1210 leukemia ip, survival T/C', 'T/C', '108 % of control');
